- System: Fibrinogen (Alexa647-labelled)
- assay info: fibrinogen binders on compound microarrays, profiling panel, artefact control for SMM control-protein annotation, biochemical, small-molecule microarray, 635/667 nm fluorescence (AID 1131);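 also: z-score merges 667 nm fluorescence with per-spot signal-to-noise over triplicate slides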
- conditions: fibrinogen-A647 binding fluorescence, higher = more signal
# composite z-score >= -0.09 gives Y, anything below gives N

COCCOC(=O)N1C(=O)[C@@]2(c3cc(C#CC4(O)CCCCCC4)ccc31)[C@H](C(=O)NC[C@H](O)c1ccccc1)[C@H]1C(=O)O[C@H](c3ccccc3)[C@H](c3ccccc3)N1[C@@H]2c1ccccc1OCCO ... Y
COc1ccc(CCNC(=O)[C@@]2(Sc3ccc(C)cc3)CC(=O)N(Cc3ccccc3)[C@@H]2c2ccc(CO)cc2I)cc1 ... N
CCOC(=O)C[C@H]1[C@H](OC(=O)Cc2ccc3c(c2)OCO3)[C@@H](NC(=O)c2ccc3ccccc3c2)c2cc(OCCCO)ccc2N1C(=O)c1ccc2ccccc2n1 ... Y
C[N+](C)(C)CCCCNC(=O)[C@@H]1C[C@@H]2C(=O)NCC(=O)N2[C@@H]1c1cccc(OCCO)c1 ... Y
COC(=O)c1c2oc(c1C(=O)OC)C(=O)N[C@@H](C(C)C)Cn1nncc1C1(CCCCC1)NC(=O)N[C@H](CO)CC2 ... N
NCCCCCCNC(=O)[C@@H]1C[C@@H]2C(=O)N[C@@H](Cc3ccccc3)C(=O)N2[C@@H]1c1ccc(O)cc1 ... Y
COc1ccc([Si](C)(C)[C@H]2[C@H](CC(=O)N(CCO)Cc3ccccc3)O[C@@]3(C(=O)N(Cc4cccc(N5C(=O)COc6ccccc65)c4)c4ccccc43)[C@@H]2C)cc1 ... Y
O=C1c2ccccc2[C@](Cc2ccccc2I)(C(=O)O)[C@H](c2ccc(CO)cc2)N1Cc1ccccc1Cl ... N
C=CCC(OC(C)=O)[C@@H]1[C@@H](N(Cc2ccc(-c3ccccc3)cc2)C(=O)c2ccc(-c3ccccc3)cc2)c2cc(OCCCO)ccc2N1C(=O)c1ccc(-c2ccccc2)cc1 (stereo not given in full) ... N
CC(C)(C)OC(=O)CC[C@@]12N=C(c3ccc(OCCCO)cc3)O[C@@H]1c1ccccc1N(Cc1ccccc1)C2=O ... Y
C=CC[C@@H](OC(=O)Nc1ccc(SC)cc1)c1ccc(OCCO)cc1 ... N
CCCCC(=C=CC[C@H](O)c1cccc(OCCO)c1)CCO ... N
COCCCN1C(=O)[C@@]2(Cc3ccccc31)c1ccccc1C(=O)N(Cc1ccccc1Cl)[C@H]2c1ccc(CO)cc1 ... N
CCOC(=O)C[C@H]1[C@H](OC(=O)c2ccc(-c3ccccc3)cc2)[C@@H](NC(=O)c2ccccc2)c2cc(OCCCO)ccc2N1C(=O)c1ccccc1 ... Y

====

# Lookup of reported z-score keyed by entry
- assay info: PSAC antagonists in infected red cells, primary screen, cell-based, P. falciparum Indochina, OD700, 2 h (AID 1155);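 also: lysis reports solute entry through the parasite surface anion channel PSAC; channel blockers reduce lysis of infected cells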
- conditions: P. falciparum Indochina infected erythrocytes, osmotic lysis OD700; higher = more signal, called active from +8 up or from −8 down
quantity: z-score

COc1ccc([Si](C)(C)[C@H]2[C@H](CC(=O)N(CCO)Cc3ccccc3)O[C@@]3(C(=O)N(Cc4ccc(N5CCC5=O)cc4)c4ccccc43)[C@@H]2C)cc1 ... 21.7
C=CC[C@@H](OC(=O)Nc1ccc(SC)cc1)c1ccc(OCCO)cc1 ... 18.6
COc1ccc(C#Cc2ccc3c(c2)[C@]2(C(=O)N3)[C@H](c3ccc(O)cc3)N3[C@H](c4ccccc4)[C@H](c4ccccc4)OC(=O)[C@H]3[C@@H]2C(N)=O)cc1 ... 1.58
O=C1O[C@H](c2ccccc2)[C@H](c2ccccc2)N2[C@H]1[C@@H](C(=O)NC[C@H](O)c1ccccc1)[C@]1(C(=O)Nc3ccc(C#CC4(O)CCCCCC4)cc31)[C@H]2c1ccc(O)cc1 ... 0.447
COC(=O)C(CC#Cc1ccc2c(c1)[C@]1(C(=O)N2)[C@H](C(=O)O)[C@H]2C(=O)O[C@H](c3ccccc3)[C@H](c3ccccc3)N2[C@@H]1c1ccc(OCCO)cc1)C(=O)OC ... 0.0825
C=C(CCCC)/C(=C/C[C@H](OC(=O)c1ccncc1)c1ccc(CO)o1)c1cnc2ccccc2c1 ... -0.0845

====

Here the recorded composite z-score is given for each entry.
- Test system: Sonic hedgehog protein (Shh)
- assay info: small-molecule binders of Shh protein, primary screen, biochemical, small-molecule microarray, 635/667 nm fluorescence (AID 1151);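 also: Shh protein binding to compounds spotted on small-molecule microarray slides; score combines spot fluorescence intensity with signal-to-noise across triplicate slides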
- conditions: small-molecule microarray binding, 635 nm fluorescence; higher = more signal
quantity: composite z-score

COC(=O)c1c(CC[C@@H](CO)NC(=O)Nc2ccc(OC)cc2)oc(C(=O)Cc2ccccc2)c1C(=O)OC ... 0.97
COc1ccc(/C=C/C(=O)c2cccc(OCC(=O)OC(C)(C)C)c2)cc1 ... -0.139
Cc1ccc(S[C@]2(C(=O)NC3CC3)CC(=O)N(Cc3ccccc3C(F)(F)F)[C@@H]2c2ccc(CO)cc2I)cc1 ... 0.385
O=C(N1CCCCC1)[C@@]1(Cc2ccccc2)N=C(c2ccc(OCCCO)cc2)O[C@H]1c1ccccc1 ... -0.401
CC(=O)NCCCC[C@@H]1NC(=O)[C@@H]2C[C@H](C(=O)O)[C@H](c3cccc(OCCO)c3)N2C1=O ... 2.12
C=CCC(OC(C)=O)[C@@H]1[C@@H](N(Cc2cccc3ccccc23)C(=O)c2cccc3ccccc23)c2cc(OCCCO)ccc2N1C(=O)Cc1ccc(OC)cc1 (stereo partly drawn) ... 0.234
NC(=O)NCC#Cc1ccc2c(c1)[C@]1(C(=O)N2)[C@H](c2ccc(OCCO)cc2)N2[C@H](c3ccccc3)[C@H](c3ccccc3)OC(=O)[C@H]2[C@@H]1C(=O)Nc1nc2ccccc2s1 ... 0.0186
O=C1c2ccccc2[C@](Cc2ccccc2I)(C(=O)O)[C@H](c2ccc(CO)cc2)N1Cc1ccccc1Cl ... 0.0948
CCCCC(=C=CC[C@@H](O)c1ccc(OCCO)cc1)C[C@@H](O)c1cc(Cl)cc(Cl)c1O ... 0.184
Cc1ccc(N2C(=O)c3ccccc3[C@](C)(C(=O)NCC(F)(F)F)[C@@H]2c2ccc(CO)cc2)nc1 ... -1.46
COc1ccc(C#Cc2ccc3c(c2)[C@]2(C(=O)N3)[C@H](c3ccc(O)cc3)N3[C@H](c4ccccc4)[C@H](c4ccccc4)OC(=O)[C@H]3[C@@H]2C(N)=O)cc1 ... -0.301
CO[C@H]1O[C@H](CO)[C@@H](OC(=O)Nc2ccccc2)[C@H](OC(=O)Nc2ccccc2-c2ccccc2)[C@H]1OC(=O)Nc1ccccc1-c1ccccc1 ... 0.877
CC(C)C[C@@H]1NC(=O)[C@H]2C[C@@H](C(=O)NCCCC[N+](C)(C)C)[C@@H](c3cccc(OCCO)c3)N2C1=O ... 2.03

====

- assay info: binders of probe aFGF2 on microarray, primary screen, stem cell growth factor project, biochemical, small-molecule microarray, fluorescence 635/667 (AID 1067);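 also: measures binding of biotinylated aFGF2 protein to printed compounds on slides; z-score merges feature fluorescence and signal-to-noise across triplicate slides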
- conditions: higher = more signal
The following compounds are shown together with reported composite z-score values.
quantity: composite z-score

C=CCN1C(=O)[C@@]2(O[C@@H](CCn3cc(CCO)nn3)[C@H]([Si](C)(C)c3ccc(OC)cc3)[C@H]2C)c2cc(NC(=O)c3ccc(OC)cc3)ccc21 ... -0.0493
COCCCN1C(=O)[C@@]2(Cc3ccccc31)c1ccccc1C(=O)N(Cc1ccccc1Cl)[C@H]2c1ccc(CO)cc1 ... -0.201
COCCOC(=O)N1C(=O)[C@@]2(c3cc(C#CC4(O)CCCCCC4)ccc31)[C@H](C(=O)NC[C@H](O)c1ccccc1)[C@H]1C(=O)O[C@H](c3ccccc3)[C@H](c3ccccc3)N1[C@@H]2c1ccccc1OCCO ... -0.0628

====

- assay info: IGROV1 ovarian cancer cell cytotoxicity, dose response, PAX8 inhibitor project, plate reader, dry powder samples (AID 743043);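 also: more negative means fewer viable cells or more cytotoxicity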
- conditions: series mostly up to 35 µM
Results with a measured potency or affinity are listed apart. Inconclusive results are not listed. The source made the active and inactive calls. No rule for the calls is given here.
quantity: outcome

COc1ccc(NC(=O)Nc2ccc3c(c2)C(=O)N([C@@H](C)CO)C[C@@H](C)[C@@H](CN(C)CC2CCCCC2)OCCCC[C@@H](C)O3)cc1 ... inactive
C[C@H]1CN([C@@H](C)CO)C(=O)Cc2cc(NC(=O)Nc3ccc4c(c3)OCO4)ccc2O[C@@H]1CN(C)CC1CCCCC1 ... inactive
C[C@@H]1CCCCO[C@@H](CN(C)Cc2ccc(Cl)c(Cl)c2)[C@H](C)CN([C@H](C)CO)C(=O)c2cc(NS(=O)(=O)c3ccccc3)ccc2O1 ... inactive
C[C@@H]1CCCCO[C@H](CN(C)C(=O)NC2CCCCC2)[C@@H](C)CN([C@@H](C)CO)C(=O)c2cc(NC(=O)Nc3ccc(C(F)(F)F)cc3)ccc2O1 ... inactive
C[C@H](CO)N1C[C@H](C)[C@@H](CN(C)C(=O)Cc2ccccc2)OCCCC[C@H](C)Oc2ccc(NC(=O)Nc3ccc(C(F)(F)F)cc3)cc2C1=O ... inactive
COc1ccc(NC(=O)N2CCCCN3[C@H](C2)[C@@H](c2ccc(C#Cc4ccccc4)cc2)[C@@H]3CO)cc1 ... inactive
COc1ccc(-c2ccc3c(c2)[C@H]2[C@H](CCN2S(=O)(=O)c2ccc(OC)cc2)[C@@H](CO)N3C)cc1 ... inactive
